Entries and their Cell Binding to Human PanT Signal/Background (of CD4 negative population) values follow.
Target: T1, human CD8 on human pan T cells (human, UniProt P01732 22-235; P10966 22-210)
T1 construct: Native CD8 on the CD4-negative population of human pan T cells
T1 sequence (P01732 22-235, chain 1 of 2): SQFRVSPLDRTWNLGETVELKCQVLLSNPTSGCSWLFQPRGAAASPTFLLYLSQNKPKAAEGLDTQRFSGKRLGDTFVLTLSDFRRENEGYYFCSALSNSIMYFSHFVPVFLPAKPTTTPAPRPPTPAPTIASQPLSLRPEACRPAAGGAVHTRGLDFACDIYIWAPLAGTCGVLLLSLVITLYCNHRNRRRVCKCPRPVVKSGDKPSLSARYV
T1 sequence (P10966 22-210, chain 2 of 2): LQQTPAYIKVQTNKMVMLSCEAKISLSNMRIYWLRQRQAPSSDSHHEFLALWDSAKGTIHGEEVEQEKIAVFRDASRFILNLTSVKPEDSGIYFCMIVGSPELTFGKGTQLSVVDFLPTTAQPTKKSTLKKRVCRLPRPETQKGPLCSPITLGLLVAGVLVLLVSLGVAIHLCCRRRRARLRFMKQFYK
Assay: flow cytometry, 20 nM mAb on human pan T cells
MEASURED_ENDPOINT: Cell Binding to Human PanT Signal/Background (of CD4 negative population)

binder="CD8B186 (antibody, human IgG1, kappa, V domains shown, full-length human IgG1, kappa) VH: QVQLQQSGAELAKPGASVKMSCKASGYIFTSYWMHWVKQRPGQGLEWIGNINPSSGYAVYNQKFKDKATLTADQSSSTAYIQLNSLTSEDSAVYYCARRVFYGDSWFAYWGQGTSVTVSS VL: DVQMIQSPASLSASVGETVTITCRASGNIHNYLAWYQQKQGKSPQLLVYNAKTLADGVPSRFSGSGSGTQYSLKINSLQPEDFGSYYCQHFWSTTWTFGGGTKLEIKR" data_value=36
binder="CD8B182 (antibody, human IgG1, kappa, V domains shown, full-length human IgG1, kappa) VH: EVQLQQSGAALAKPGTSVKMSCKASGYTFTSYWMNWVRQRPGQGLEWIGAVNPTNYYTEYIQKFKDKAILTADKSSSTAYMHLSGLTSEDSAVYYCARSGLYNTNHLAWFAYWGQGTTVTVSS VL: DIKMTQSPASLSASVGETVTITCRASENIHNYLAWYQQIQGKSPQLLVYNAKTLANGVPSRFSGSASGTQFSLTINSLQPEDFGSYYCQHFWTTPLTFGAGTKLELKR" data_value=1490
binder="CD8B270 (antibody, human IgG1, kappa, V domains shown, full-length human IgG1, kappa) VH: QVQLQQPGAELVKPGASVMLSCKASGYTFTNYWMHWVKQRPGQGLEWIGNIDPSDSETHYNQKFKDKATLTVDKSSSTAYMQLSSLTSEDSAVYYCASGLTGTGYYWGQGTTLTVSS VL: DIQMTQTTSSLSASLGDRVTITCRASQDIRPYLNWYQQKPEGTIKLLIYFTSKLHSGVPSRFSGSGSGTDYSLTISNLEQEDIATYFCQQDNTLPYTFGSGTKLELKR" data_value=2500
binder="CD8B303 (antibody, human IgG1, kappa, V domains shown, full-length human IgG1, kappa) VH: QVQLKESGPGLVAPSQSLSITCTVSGFSLSIYSIHWVRQPPGKGLEWLGMIWGGGSTDYNSTLNSRLSIIKDNSKSQVFLKMNSLQTDDTAMYYCARNPHHYGGSTGAMDYWGQGTTVTVSS VL: DVQMIQSPSSLSASLGGTVTITCKASQDIKKYMAWYQHKPGKGPRLLIHYTSSLQPGIPSRFSGSGSGRDYYFSISNLEPEDIATYFCLQYDNLFTFGSGTKLELKR" data_value=1180
binder="CD8B361 (antibody, human IgG1, kappa, V domains shown, full-length human IgG1, kappa) VH: EVQLQQSGPELVKPGNSVKMSCKASGYTFTDYYMDWVKQSHGTSLEWIGYIYPNNGDTRYNQKFKDKATLTVDKSSSTAYMELHSLTSEDSAVFYCARSIYYDHGGGFPYWGQGTLVTVSA VL: DIVMTQSQKFMSTSVGDRVSVTCKASQNVGTYVAWYQQKPGQSPKALIYSASYRYSGVPDRFTGSGSGTDFTLTINNVQSEDLAEYLCQQYNSYPTFGGGTRLEIKR" data_value=1050
